Protocol Notes: Selectivity index, ratio of HC50 for hemolytic activity in red blood cells (unknown origin) to MIC for antibacterial activity against penicillin-resistant Staphylococcus aureus ATCC43300
Assay type: toxicity, cell-based, RBC
Applied Conditions: read-out: Selectivity Index
Would you mind telling me the reported selectivity ratio of each entry?
Numbers only.

Fill in selectivity ratio for each of the 2 molecules listed.
1. CCCCCCNC(=O)C[N+](C)(C)CCCOc1ccc(/C=C/C(=O)c2ccc(OCCC[N+](C)(C)CC(=O)NCCCCCC)cc2)cc1.[Br-].[Br-]
2. CCCCCC[N+](C)(C)CCCOc1ccc(/C=C/C(=O)c2ccc(OCCC[N+](C)(C)CCCCCC)cc2)cc1.[Br-].[Br-]

[329, 1130]

Fill in selectivity ratio for each of the 2 molecules listed.
1. CCCCCCCCCC[N+](C)(C)CCCOc1ccc(C(=O)/C=C/c2ccccc2)cc1.[Br-]
2. CCCCCCCC[N+](C)(C)CCCCCCCOc1ccc(C(=O)/C=C/c2ccccc2)cc1.[Br-]

1: 189; 2: 52.6

----------
Protocol Notes: Hemolytic activity in red blood cells (unknown origin)
Format: toxicity, cell-based, Erythrocyte
Value Type: HC50

Sample answers from the record:
Input Smiles	HC50
O=C(Cc1ccc(-c2ccccc2)cc1)Nc1cc[n+](CCCOc2ccc(C(=O)/C=C/c3ccccc3)cc2)cc1.[Br-]	> 1280 µg/mL
CCCCOc1cc[n+](CCCOc2ccc(/C=C/C(=O)c3ccc(OCCC[n+]4ccc(OCCCC)cc4)cc3)cc2)cc1.[Br-].[Br-]	> 1280 µg/mL
CCCCNC(=O)C[N+](C)(C)CCCOc1ccc(/C=C/C(=O)c2ccc(OCCC[N+](C)(C)CC(=O)NCCCC)cc2)cc1.[Br-].[Br-]	> 1280 µg/mL

For reference, reported HC50 for COc1ccc(CC(=O)Nc2cc[n+](CCCOc3ccc(C(=O)/C=C/c4ccccc4)cc3)cc2)cc1.[Br-] stands at 724 µg/mL

----------
Protocol Notes: Selectivity index, ratio of HC50 for hemolytic activity in red blood cells (unknown origin) to MIC for antibacterial activity against penicillin-resistant Staphylococcus aureus ATCC43300
Assay type: toxicity, cell-based, RBC
Applied Conditions: read-out: Selectivity Index
selectivity ratio of 50 or higher: true. Under 50: false.

Input Smiles	Category Label
CCCCCCCCCCCC(=O)Nc1cc[n+](CCCOc2ccc(C(=O)/C=C/c3ccccc3)cc2)cc1.[Br-]	false
COc1ccc(CC(=O)Nc2cc[n+](CCCOc3ccc(C(=O)/C=C/c4ccccc4)cc3)cc2)cc1.[Br-]	true
CCCCCCCCCCCCNC(=O)C[N+](C)(C)CCCOc1ccc(/C=C/C(=O)c2ccc(OCCC[N+](C)(C)CC(=O)NCCCCCCCCCCCC)cc2)cc1.[Br-].[Br-]	false
CCCCCCCCCCCCCC[N+](C)(C)CCCOc1ccc(/C=C/C(=O)c2ccc(OCCC[N+](C)(C)CCCCCCCCCCCCCC)cc2)cc1.[Br-].[Br-]	false
CCCCCCCCCCCCCC[N+](C)(C)CCCOc1ccc(C(=O)/C=C/c2ccccc2)cc1.[Br-]	false

# input for lookup
Assess whether reported selectivity ratio for CCCCCCCC(=O)Nc1cc[n+](CCCOc2ccc(C(=O)/C=C/c3ccccc3)cc2)cc1.[Br-] sits at 50 or higher. true

----------
System: Staphylococcus aureus
Protocol Notes: Antibacterial activity against penicillin-resistant Staphylococcus aureus ATCC43300 by broth microdilution assay
Type: functional
Value Type: MIC (µg/mL)
Give bare numbers, in µg/mL.

Sample answers from the record:
Input Smiles	Assay Result
CCCCOc1cc[n+](CCCOc2ccc(/C=C/C(=O)c3ccc(OCCC[n+]4ccc(OCCCC)cc4)cc3)cc2)cc1.[Br-].[Br-]	4
CCCCCCCCCC(=O)Nc1cc[n+](CCCOc2ccc(C(=O)/C=C/c3ccccc3)cc2)cc1.[Br-]	4
O=C(CC12CC3CC(CC(C3)C1)C2)Nc1cc[n+](CCCOc2ccc(C(=O)/C=C/c3ccccc3)cc2)cc1.[Br-]	128

Fill in MIC for each of the 4 molecules listed.
1. CCCCCCCCCCCCCC[N+](C)(C)CCCOc1ccc(C(=O)/C=C/c2ccccc2)cc1.[Br-]
2. CCCCCCCCNC(=O)C[N+](C)(C)CCCOc1ccc(/C=C/C(=O)c2ccc(OCCC[N+](C)(C)CC(=O)NCCCCCCCC)cc2)cc1.[Br-].[Br-]
3. CCCCCCCCCC[N+](C)(C)CCCOc1ccc(C(=O)/C=C/c2ccccc2)cc1.[Br-]
4. CCCCCCCC[N+](C)(C)CCCOc1ccc(C(=O)/C=C/c2ccccc2)cc1.[Br-]

[32, 4, 4, 1]
